inhibition at 2 µM reference
Molecular target: Smoothened (SMO) (Mus musculus, UniProt P56726)
Construct: C3H10T1/2 cells (ATCC #CCL-226) were split and seeded; endogenous in cells; host or cells: C3H10T1/2 (ATCC #CCL-226)
Sequence (P56726 33-793): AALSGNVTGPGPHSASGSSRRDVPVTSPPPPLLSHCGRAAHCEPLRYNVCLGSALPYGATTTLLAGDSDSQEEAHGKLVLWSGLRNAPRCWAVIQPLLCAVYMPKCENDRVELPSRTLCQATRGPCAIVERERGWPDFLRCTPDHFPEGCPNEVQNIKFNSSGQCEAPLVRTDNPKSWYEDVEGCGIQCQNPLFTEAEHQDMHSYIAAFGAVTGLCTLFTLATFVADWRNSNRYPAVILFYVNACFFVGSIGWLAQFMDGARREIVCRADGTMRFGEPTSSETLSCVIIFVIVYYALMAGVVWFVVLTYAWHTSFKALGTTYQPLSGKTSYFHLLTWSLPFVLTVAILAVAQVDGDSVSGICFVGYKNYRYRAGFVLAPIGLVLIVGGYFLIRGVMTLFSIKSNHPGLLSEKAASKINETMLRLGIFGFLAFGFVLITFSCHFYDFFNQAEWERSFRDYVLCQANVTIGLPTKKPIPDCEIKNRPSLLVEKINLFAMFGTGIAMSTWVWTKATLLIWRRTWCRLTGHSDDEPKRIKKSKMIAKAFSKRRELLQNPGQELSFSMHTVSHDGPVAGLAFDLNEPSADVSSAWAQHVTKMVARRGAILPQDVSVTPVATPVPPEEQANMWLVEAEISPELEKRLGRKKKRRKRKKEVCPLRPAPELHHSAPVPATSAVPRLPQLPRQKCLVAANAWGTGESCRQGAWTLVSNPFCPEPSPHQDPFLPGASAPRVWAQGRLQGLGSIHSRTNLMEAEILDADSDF
Test: Smoothened (SMO)/Sonic Hedgehog (SHh) Transient Transcriptional Activation Assay (Gli-luciferase reporter in C3H10T1/2 cells)
Assay type: cell-based, murine
Settings: C3H 10T1/2, 2 μM compound; transfected C3H10T1/2 cells, recombinant human SHh 250 ng/mL, 20 hours, luciferase readout; read-out: SMO CELL % INHIBITION @ 2 μM
Structures can show the parent of a compound that is named as a salt.
# number only, unit % dropped from output

Challenge: Give the reported inhibition at 2 µM for this compound. CN1C[C@@H](NC(=O)c2ccc3c(c2)OCCO3)C[C@H]1c1nc2ccccc2[nH]1 [Example 21]
Response given: 61.8

Challenge: Give the reported inhibition at 2 µM for this compound. CN1CC[C@@H](NC(=O)c2ccc3c(c2)OCCO3)C[C@@H]1c1nc2ccc(F)cc2[nH]1 [Example 45, hydrochloride]
Response given: 105

Challenge: Give the reported inhibition at 2 µM for this compound. CN1CC[C@@H](NC(=O)Nc2ccc(Cl)cc2)C[C@@H]1c1nc2ccccc2[nH]1 [Example 30, hydrochloride]
Response given: 108

Challenge: Give the reported inhibition at 2 µM for this compound. CN1CC[C@@H](NC(=O)Nc2ccc(C(F)(F)F)nc2)C[C@@H]1c1nc2cc(C(F)(F)F)ccc2[nH]1 [Example 35, hydrochloride]
Response given: 107

Challenge: Give the reported inhibition at 2 µM for this compound. Cc1cccc2cc(C(=O)N[C@@H]3CCN(C)[C@@H](c4nc5ccccc5[nH]4)C3)nn12 [Example 118, trifluoroacetate]
Response given: 65.1

***
Challenge: Give the reported inhibition at 2 µM for this compound. CN1CC[C@@H](NC(=O)Nc2cccc(C#N)c2)C[C@@H]1c1nc2ccccc2[nH]1 [Example 88, hydrochloride]
Response given: 92.1

Challenge: Give the reported inhibition at 2 µM for this compound. CC(C)N1C[C@H](NC(=O)Nc2ccc(Cl)c(C(F)(F)F)c2)C[C@H]1c1nc2ccccc2[nH]1 [Example 84]
Response given: 95.4

* * *

inhibition at 2 µM reference
Target: Smoothened (SMO) (Mus musculus)
Construct: C3H10T1/2 cells (ATCC #CCL-226) were split and seeded; endogenous in cells; host or cells: C3H10T1/2 (ATCC #CCL-226)
Assay: Smoothened (SMO)/Sonic Hedgehog (SHh) Transient Transcriptional Activation Assay (Gli-luciferase reporter in C3H10T1/2 cells)
Type: cell-based, murine
Conditions: C3H 10T1/2, 2 μM compound; transfected C3H10T1/2 cells, recombinant human SHh 250 ng/mL, 20 hours, luciferase readout; read-out: SMO CELL % INHIBITION @ 2 μM
Structures can show the parent of a compound that is named as a salt.
Please answer using the number first and the unit second.

Challenge: Give the reported inhibition at 2 µM for this compound. CN1CC[C@@H](NC(=O)Nc2ccc(-c3ccccc3)s2)C[C@@H]1c1nc2ccccc2[nH]1 [Example 90, hydrochloride]
Response given: 87.9%

* * *

Biological target: Smoothened (SMO) (Mus musculus, UniProt P56726)
Construct: C3H10T1/2 cells (ATCC #CCL-226) were split and seeded; endogenous in cells; host or cells: C3H10T1/2 (ATCC #CCL-226)
Experiment: Smoothened (SMO)/Sonic Hedgehog (SHh) Transient Transcriptional Activation Assay (Gli-luciferase reporter in C3H10T1/2 cells)
Type: cell-based, murine
Settings: C3H 10T1/2, 2 μM compound; transfected C3H10T1/2 cells, recombinant human SHh 250 ng/mL, 20 hours, luciferase readout; read-out: SMO CELL % INHIBITION @ 2 μM
Structures can show the parent of a compound that is named as a salt.
Readout Kind: inhibition at 2 µM (%)
# number only, unit % dropped from output

Below, each entry is followed by its recorded inhibition at 2 µM result.
Challenge: Give the reported inhibition at 2 µM for this molecule. CN1CC[C@@H](NC(=O)c2ccc3c(c2)CCC(=O)N3)C[C@@H]1c1nc2ccccc2[nH]1 [Example 87, hydrochloride]
Response given: 92.3

Challenge: Give the reported inhibition at 2 µM for this molecule. CN1CC[C@@H](NC(=O)c2ccc3c(c2)OCCO3)C[C@@H]1c1nc2ccccc2[nH]1 [Example 86, hydrochloride]
Response given: 93.1

Challenge: Give the reported inhibition at 2 µM for this molecule. CN1CC[C@@H](NC(=O)c2ccc3c(c2)NC(=O)CO3)C[C@@H]1c1nc2ccccc2[nH]1 [Example 100, hydrochloride]
Response given: 63.7

Challenge: Give the reported inhibition at 2 µM for this molecule. Cc1cc(NC(=O)N[C@@H]2CCN(C)[C@@H](c3nc4ccccc4[nH]3)C2)cnc1F [Example 40, hydrochloride]
Response given: 106

Challenge: Give the reported inhibition at 2 µM for this molecule. Cc1ccc2nc([C@@H]3C[C@@H](NC(=O)Nc4ccc(Cl)c(C(F)(F)F)c4)CN3C(C)C)[nH]c2c1 [Example 23]
Response given: 100

***
Challenge: Give the reported inhibition at 2 µM for this molecule. COc1ccc2[nH]c([C@H]3C[C@H](NC(=O)Nc4ccc(C#N)cc4)CCN3C)nc2c1 [Example 29, hydrochloride]
Response given: 108

Challenge: Give the reported inhibition at 2 µM for this molecule. Cc1ccc(NC(=O)N[C@@H]2CCN(C)[C@@H](c3nc4ccccc4[nH]3)C2)cn1 [Example 81, hydrochloride]
Response given: 97.8
